From: patent US11230581B2

experimental.system: HLA-A*02:01 (Homo sapiens, UniProt P04439, D140Y/D185E/D98H/E176V/E277Q/G131W/G231S/I119V/I121R/I166T/I218V/L300P/L318F/N151K/N90K/P208A/P217A/Q86G/Q94H/R138H/R169H/T345S)
test: MHC binding assay (UV-ligand exchange, β2m ELISA, peptide exchange yield)
test.context: binding of HLA-class I restricted peptides to HLA-A*02:01, UV-ligand exchange
readout: Peptide exchange (MHC class I binding score, peptide exchange yield)

[
  {
    "substance": "34 (ILVEADSLWVV; listed as Homo sapiens) [compound 34]",
    "observed.value": "“+++” (≥50 = +++)"
  },
  {
    "substance": "32 (KLDDLTQDLTV; listed as Homo sapiens) [compound 32]",
    "observed.value": "“++” (≥20% = ++)"
  },
  {
    "substance": "574 (YLLQEPPRTV; listed as Homo sapiens) [compound 574]",
    "observed.value": "“++” (≥20% = ++)"
  },
  {
    "substance": "3 (SLASKLTTL; listed as Homo sapiens) [compound 3]",
    "observed.value": "“++++” (≥75% = ++++)"
  },
  {
    "substance": "489 (KMWEELPEVV; listed as Homo sapiens) [compound 489]",
    "observed.value": "“+++” (≥50 = +++)"
  },
  {
    "substance": "573 (ILVANAIVGV; listed as Homo sapiens) [compound 573]",
    "observed.value": "“+++” (≥50 = +++)"
  },
  {
    "substance": "191 (LLQEGQALEYV; listed as Homo sapiens) [compound 191]",
    "observed.value": "“++” (≥20% = ++)"
  },
  {
    "substance": "543 (GLLPTPITQQASL; listed as Homo sapiens) [compound 543]",
    "observed.value": "“+++” (≥50 = +++)"
  },
  {
    "substance": "61 (FLQGYQLHL; listed as Homo sapiens) [compound 61]",
    "observed.value": "“++++” (≥75% = ++++)"
  },
  {
    "substance": "173 (LLDSASAGLYL; listed as Homo sapiens) [compound 173]",
    "observed.value": "“+++” (≥50 = +++)"
  },
  {
    "substance": "206 (VLQEGKLQKLAQL; listed as Homo sapiens) [compound 206]",
    "observed.value": "“+++” (≥50 = +++)"
  },
  {
    "substance": "255 (VLASYNLTV; listed as Homo sapiens) [compound 255]",
    "observed.value": "“+++” (≥50 = +++)"
  },
  {
    "substance": "235 (YLNDLHEVLL; listed as Homo sapiens) [compound 235]",
    "observed.value": "“++++” (≥75% = ++++)"
  },
  {
    "substance": "313 (VLFDDELLMV; listed as Homo sapiens) [compound 313]",
    "observed.value": "“+++” (≥50 = +++)"
  },
  {
    "substance": "612 (YLYNEGLSV; listed as Homo sapiens) [compound 612]",
    "observed.value": "“+++” (≥50 = +++)"
  },
  {
    "substance": "54 (SLLEQGKEPWMV; listed as Homo sapiens) [compound 54]",
    "observed.value": "“+++” (≥50 = +++)"
  },
  {
    "substance": "358 (ALDEYTSEL; listed as Homo sapiens) [compound 358]",
    "observed.value": "“++++” (≥75% = ++++)"
  },
  {
    "substance": "280 (VLPDPEVLEAV; listed as Homo sapiens) [compound 280]",
    "observed.value": "“+++” (≥50 = +++)"
  },
  {
    "substance": "78 (SLFSSLEPQIQPV; listed as Homo sapiens) [compound 78]",
    "observed.value": "“+++” (≥50 = +++)"
  },
  {
    "substance": "222 (NLIENVQRL; listed as Homo sapiens) [compound 222]",
    "observed.value": "“++” (≥20% = ++)"
  },
  {
    "substance": "51 (LLPDLEFYV; listed as Homo sapiens) [compound 51]",
    "observed.value": "“++++” (≥75% = ++++)"
  },
  {
    "substance": "137 (TLVLTLPTV; listed as Homo sapiens) [compound 137]",
    "observed.value": "“++++” (≥75% = ++++)"
  },
  {
    "substance": "144 (YIMEPSIFNTL; listed as Homo sapiens) [compound 144]",
    "observed.value": "“+++” (≥50 = +++)"
  },
  {
    "substance": "333 (FLPDANSSV; listed as Homo sapiens) [compound 333]",
    "observed.value": "“++” (≥20% = ++)"
  }
]
